Biological target: Induced myeloid leukemia cell differentiation protein Mcl-1 (Homo sapiens)
Assay: MCL1-BIM peptide interaction disruptors – biochemical, fluorescence polarization, primary screen (AID 2057);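 further: 0% = DMSO wells and 100% = unlabeled Bim-BH3 peptide control; higher means more loss of mP so more displacement of Bim peptide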
Conditions: GST-MCL1 / FITC-Bim-BH3 fluorescence polarization; at 10.9 µM; active compounds read high
Screen size: about 320,000 compounds; about 2,100 (0.66%) were called active. The list comes from a sample in which actives are over-represented; it also holds close analogues and randomly drawn compounds.
For each entry below, report its inhibition value.
Field: numeric (%). Do not append units.

Q: Which inhibition reading was recorded for the molecule "O=C1NC(=O)N(c2ccccc2)C(=O)/C1=C/c1ccc([N+](=O)[O-])s1" ?
Ans: 44.1

Q: Query "CCOP(=S)(OCC)SCOC(=O)NCC(=O)OC" next
Ans: 6.09

Q: Query "Cc1c(C(=O)O)cccc1-n1c(C)cc(/C=C2\C(=O)NC(=O)N(c3ccc4c(c3)OCO4)C2=O)c1C" next
Ans: 2.52

Q: Query "COc1cccc(OC)c1C(=O)NC(=S)N1C[C@H]2C[C@H](C1)c1cccc(=O)n1C2" next
Ans: 9.55

Origin of the recorded values: PubChem BioAssay AID2057
